- Test system: Staphylococcus epidermidis
- Assay Name: Antibacterial activity against methicillin resistant Staphylococcus epidermidis RP62A by CLSI M11-A7 protocol based method
- Format: functional
Outcome Measure: MIC
Param answer (str): number followed by unit.

Consider the worked cases shown below.
[[record]]
structure_notation = "COc1cc2nccc(Nc3cccc(C(F)(F)F)c3)c2cc1OCc1ccc(C(F)(F)F)cc1"
target_system = "Staphylococcus epidermidis"
outcome_measure = "MIC"
reading = "6 µg/mL"

[[record]]
structure_notation = "COc1cc2nccc(Nc3ccc(F)c(Cl)c3)c2cc1OCc1ccccc1C"
target_system = "Staphylococcus epidermidis"
outcome_measure = "MIC"
reading = "3 µg/mL"

[[record]]
structure_notation = "COc1cc2nccc(Nc3ccc(C)cc3)c2cc1OCc1ccc(C(F)(F)F)cc1"
target_system = "Staphylococcus epidermidis"
outcome_measure = "MIC"
reading = "3 µg/mL"

[[record]]
structure_notation = "CCCCCCCCCC(=O)N[C@@H](Cc1c[nH]c2ccccc12)C(=O)N[C@@H](CC(N)=O)C(=O)N[C@@H](CC(=O)O)C(=O)N[C@@H]1C(=O)NCC(=O)N[C@@H](CCCN)C(=O)N[C@@H](CC(=O)O)C(=O)N[C@H](C)C(=O)N[C@@H](CC(=O)O)C(=O)NCC(=O)N[C@H](CO)C(=O)N[C@@H]([C@H](C)CC(=O)O)C(=O)N[C@@H](CC(=O)c2ccccc2N)C(=O)O[C@@H]1C"
target_system = "Staphylococcus epidermidis"
outcome_measure = "MIC"
reading = "0.5 µg/mL"

[[record]]
structure_notation = "COc1cc2nccc(Nc3ccc(C(F)(F)F)cc3)c2cc1OCc1ccc(C(F)(F)F)cc1"
target_system = "Staphylococcus epidermidis"
outcome_measure = "MIC"
reading = "3 µg/mL"


Bench note: what MIC did COc1cc2nccc(Nc3ccc(F)c(Cl)c3)c2cc1OCc1ccc(C(F)(F)F)cc1 show? 3 µg/mL

Bench note: what MIC did COc1cc2nccc(Nc3ccc(F)c(Cl)c3)c2cc1OCc1ccc(C(C)C)cc1 show? 6 µg/mL

Bench note: what MIC did COc1cc2nccc(Nc3ccc(F)c(Cl)c3)c2cc1OCCOc1ccccc1 show? 3 µg/mL
